- Measurement conditions: 328.15 K; 35000 kPa; Liquid; Vibrating tube method
Assay readout: mass density (kg/m3)

Compound	mass density, kg/m3
CCCC[n+]1ccccc1.F[B-](F)(F)F [1-butylpyridinium tetrafluoroborate]	1209.57
CCCC[n+]1cccc(C)c1.N#C[N-]C#N [1-butyl-3-methylpyridinium dicyanamide]	1044.93
CCCCCCCC[n+]1cccc(C)c1.F[B-](F)(F)F [N-octyl-3-methylpyridinium tetrafluoroborate]	1093.82
CCCC[n+]1ccccc1.O=S(=O)([O-])C(F)(F)F [1-butylpyridinium trifluoromethanesulfonate]	1312.17
CCC[n+]1ccccc1Oc1ccc(Cl)c[n+]1CCOS(=O)(=O)[O-].F[B-](F)(F)F	1247.33
